Hey, just so you know, these numbers are from patent EP1655289A1.

Target: Eg5 (Xenopus laevis)
Construct: Xenopus laevis Eg5 corresponding to amino acids 1 to 487; made in house; host or cells: E. coli M15(pREP4)
Sequence (P28025 1-487): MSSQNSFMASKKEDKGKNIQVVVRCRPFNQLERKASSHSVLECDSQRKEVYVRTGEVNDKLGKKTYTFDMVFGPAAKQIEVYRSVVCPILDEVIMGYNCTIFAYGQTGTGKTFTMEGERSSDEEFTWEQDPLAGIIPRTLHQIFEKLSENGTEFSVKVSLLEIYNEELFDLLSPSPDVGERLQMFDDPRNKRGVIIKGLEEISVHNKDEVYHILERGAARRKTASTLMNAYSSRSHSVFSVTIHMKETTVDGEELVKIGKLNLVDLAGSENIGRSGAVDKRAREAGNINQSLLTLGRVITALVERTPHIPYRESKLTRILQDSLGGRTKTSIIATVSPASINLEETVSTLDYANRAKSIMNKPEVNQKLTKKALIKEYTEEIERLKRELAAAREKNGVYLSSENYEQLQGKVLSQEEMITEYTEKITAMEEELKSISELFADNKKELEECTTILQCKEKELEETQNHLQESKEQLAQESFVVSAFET
Test: Microtubule-stimulated ATPase activity of Eg5 (EnzChek Phosphate Assay), IC50 determination
Assay type: biochemical
Conditions: microtubule-stimulated ATPase activity; 40 nM Eg5487H, 4 µM microtubules, 1 mM MgATP; read-out: IC50
property_measured: IC50 (nM)

>>> df
                                   compound  property_measured  reported_value
0  Oc1cccc(C2NC(=S)NC3=C2C(O)CCC3)c1 (centres unmarked)               IC50            2000
1  O=C1CCCC2=C1C(c1cccc(O)c1)NC(=S)N2 (centres unmarked)               IC50            2000
